# SYSTEM_UNDER_TEST: human CCR6 (Homo sapiens)
# Sequence (P51684 whole entry): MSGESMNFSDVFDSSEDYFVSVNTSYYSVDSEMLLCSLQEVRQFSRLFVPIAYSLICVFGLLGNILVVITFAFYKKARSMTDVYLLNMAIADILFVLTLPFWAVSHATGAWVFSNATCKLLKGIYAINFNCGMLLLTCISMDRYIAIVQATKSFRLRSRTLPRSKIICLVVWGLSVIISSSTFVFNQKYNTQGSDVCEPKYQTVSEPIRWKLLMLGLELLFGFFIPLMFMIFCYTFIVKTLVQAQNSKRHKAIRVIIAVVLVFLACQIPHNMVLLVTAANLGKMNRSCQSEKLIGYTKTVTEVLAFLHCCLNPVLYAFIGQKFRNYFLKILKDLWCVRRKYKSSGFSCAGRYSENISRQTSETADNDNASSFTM
# PROTOCOL_SUMMARY: CHO-K1 CCR6 chemotaxis assay towards CCL20
# Type: cell-based
# TEST_PARAMETERS: relative -LogIC50; CHO-K1 cells overexpressing human CCR6, 100 ng/ml CCL20, Transwell, 4 h
EXPERIMENTAL_ENDPOINT: IC50 (nM)

TEST_SMILES	IC50, nM
CNC(=O)c1cccc(-c2ccc(S(=O)(=O)N3CCC(Nc4ccc(C5(C(F)(F)F)CC5)cc4)CC3)cc2)c1	25.1
O=S(=O)(c1ccc(-c2ccc3nccn3c2)cc1)[C@H]1CC[C@H](Nc2ccc(C3(C(F)(F)F)CC3)cc2)CC1	39.8
O=S(=O)(c1ccc(-c2ccc3nnc(C(F)F)n3c2)cc1)N1CCC(Nc2ccc(C3(C(F)(F)F)CC3)cn2)CC1	6.31
Cc1cc(-c2ccc(S(=O)(=O)N3CCC(Nc4ccc(C5(C(F)(F)F)CC5)cn4)CC3)cc2)cn2c(C(C)C)nnc12	15.8
CNC(=O)c1ccc(-c2ccc(S(=O)(=O)N3CCC(Nc4ccc(C5(C(F)(F)F)CC5)cc4)CC3)cc2)cc1	158

(a) NC(=O)c1ccc(-c2ccc(S(=O)(=O)N3CCC(Nc4ccc(C5(C(F)(F)F)CC5)cc4)CC3)cc2)cc1
(b) CC(C)c1cnc2ccc(-c3ccc(S(=O)(=O)[C@H]4CC[C@H](Nc5ccc(C6(C(F)(F)F)CC6)cc5)CC4)cc3)cn12
Between a and b , whose recorded IC50 is greater? Which one? Tell me its label.
a
(a: 126 nM, b: 3.98 nM)

(1) Cc1cnc2ccc(-c3ccc(S(=O)(=O)N4CCC(Nc5ccc(C6(C(F)(F)F)CC6)cc5)CC4)cc3)cn12
(2) N#Cc1c[nH]c2ccc(-c3ccc(S(=O)(=O)[C@H]4CC[C@H](Nc5ccc(C6COC6)cc5)CC4)cc3)cc12
(3) CC(C)c1nnc2ccc(-c3ccc(S(=O)(=O)N4CCC(Nc5ccc(C6(C(F)(F)F)CC6)cc5)CC4)cc3)cn12
Put the entries in order of IC50, starting with the largest number. Answer by naming the labels in the order asked.
2, 1, 3

====

# SYSTEM_UNDER_TEST: human CCR6 (Homo sapiens)
# PROTOCOL_SUMMARY: Human CCR6-Cre reporter assay
# Format: cell-based
# Design: The second construct contained the open reading frame of human CCR6 in the pUNO1 backbone; host or cells: 293 FT cells
# TEST_PARAMETERS: relative -LogIC50; transfected 293 FT cells, 6 μM Forskolin, 6 nM CCL20, luciferase readout, 5h
pIC50: −log10 of the molar value.
EXPERIMENTAL_ENDPOINT: pIC50

TEST_SMILES	SYSTEM_UNDER_TEST	NUMBER
N#CC1(c2ccc(NC3CCN(S(=O)(=O)c4ccc(N5CCC(CC(N)=O)CC5)cc4)CC3)nc2)CC1	human CCR6 (Homo sapiens)	5.30
Cc1c[nH]c2ncc(-c3ccc(S(=O)(=O)[C@H]4CC[C@H](Nc5ccc(C6(C(F)(F)F)CC6)cc5)CC4)cc3)cc12	human CCR6 (Homo sapiens)	7.20

(I) NC(=O)c1cc(-c2ccc(S(=O)(=O)N3CCC(Nc4ccc(C5(C(F)(F)F)CC5)cn4)CC3)cc2)ccn1
(II) O=S(=O)(c1ccc(-c2ccc3nccn3c2)cc1)[C@H]1CC[C@H](Nc2ccc(C3(C(F)(F)F)CC3)cc2)CC1
Between I and II , whose recorded pIC50 is greater? Which one? Tell me its label.
I

====

# SYSTEM_UNDER_TEST: UniProt P51684
# PROTOCOL_SUMMARY: Human CCR6-Cre reporter assay
# Format: cell-based
# Parameters: The second construct contained the open reading frame of human CCR6 in the pUNO1 backbone; host or cells: 293 FT cells
# TEST_PARAMETERS: relative -LogIC50; transfected 293 FT cells, 6 μM Forskolin, 6 nM CCL20, luciferase readout, 5h
EXPERIMENTAL_ENDPOINT: IC50 (nM)

COMPOUND	MEASURE_UNIT	NUMBER
CC(C)c1nnc2ccc(-c3ccc(S(=O)(=O)N4CCC(Nc5ccc(C6(C(F)(F)F)CC6)cc5)CC4)cc3)cn12	nM	50.1
O=S(=O)(c1ccc(-c2ccc3nccn3c2)cc1)[C@H]1CC[C@H](Nc2ccc(C3CC3(F)F)cc2)CC1 (some centres unmarked)	nM	251
NC(=O)c1ccc(-c2ccc(S(=O)(=O)N3CCC(Nc4ccc(C5(C(F)(F)F)CC5)cc4)CC3)cc2)cc1	nM	200
CC(C)c1nnc2cnc(-c3ccc(S(=O)(=O)N4CCC(Nc5ccc(C6(C(F)(F)F)CC6)cc5)CC4)cc3)cn12	nM	63.1
O=S(=O)(c1ccc(-c2ccc3nccn3c2)cc1)[C@H]1CC[C@H](Nc2ccc(C3COC3)cc2)CC1	nM	398
N#Cc1c[nH]c2ccc(-c3ccc(S(=O)(=O)N4CCC(Nc5ccc(C6(C(F)(F)F)CC6)cc5)CC4)cc3)cc12	nM	39.8

(I) CNC(=O)c1ccc(-c2ccc(S(=O)(=O)N3CCC(Nc4ccc(C5(C(F)(F)F)CC5)cc4)CC3)cc2)cn1
(II) N#CC1(c2ccc(NC3CCN(S(=O)(=O)c4ccc(N5CCC6(CC5)COC6)cc4)CC3)nc2)CC1
(III) Cc1n[nH]c2ccc(-c3ccc(S(=O)(=O)N4CCC(Nc5ccc(C6(C(F)(F)F)CC6)cc5)CC4)cc3)cc12
Put the entries in order of IC50, starting with the largest number. Answer by naming the labels in the order asked.
II, I, III
(II: 10000 nM, I: 126 nM, III: 79.4 nM)

(1) CC(C)c1cnc2ccc(-c3ccc(S(=O)(=O)N4CCC(Nc5ccc(C6(C(F)(F)F)CC6)cc5)CC4)cc3)cn12
(2) N#Cc1c[nH]c2ccc(-c3ccc(S(=O)(=O)[C@H]4CC[C@H](Nc5ccc(C6COC6)cc5)CC4)cc3)cc12
Min IC50? 1 | 2 Which one? Tell me its label.
2
(2: 63.1 nM, 1: 100 nM)

(I) Cc1nnc2ccc(-c3ccc(S(=O)(=O)N4CCC(Nc5ccc(C6(C(F)(F)F)CC6)cc5)CC4)cc3)cn12
(II) N#CC1(c2ccc(NC3CCN(S(=O)(=O)c4ccc(-c5ccc6nccn6c5)cc4)CC3)nc2)CC1
Min IC50? I | II Which one? Tell me its label.
I
(I: 126 nM, II: 794 nM)
